- procedure-summary: self-splicing fitness, log relative to wild type (ln ratio); higher = more splicing; Tetrahymena group I intron in knt gene, E. coli kanamycin selection, DiMSum; sequences stand for … in CUCUCU…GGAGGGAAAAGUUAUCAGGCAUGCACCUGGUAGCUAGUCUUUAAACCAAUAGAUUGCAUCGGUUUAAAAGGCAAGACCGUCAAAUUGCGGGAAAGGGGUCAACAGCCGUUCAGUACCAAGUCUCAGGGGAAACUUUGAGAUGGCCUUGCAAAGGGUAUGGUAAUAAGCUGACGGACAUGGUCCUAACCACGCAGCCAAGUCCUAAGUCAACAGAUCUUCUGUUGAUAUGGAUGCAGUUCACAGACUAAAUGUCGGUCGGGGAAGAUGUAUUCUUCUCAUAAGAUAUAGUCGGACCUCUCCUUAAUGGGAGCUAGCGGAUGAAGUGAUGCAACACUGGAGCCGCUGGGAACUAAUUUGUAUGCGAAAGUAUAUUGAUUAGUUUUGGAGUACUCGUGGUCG;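 further: selection with 25 µg/mL kanamycin versus none on LB agar overnight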
- test-parameters: 37 °C
Outcome: criterion met for self-splicing fitness (ln) of at least -1; criterion not met for anything lower.

1. GCCUAGCAAUAUUACGGUUU ... criterion met
2. GCAAAGCAAUAUUACGAUUU ... criterion met
3. UCACAGCAAUAUUACGGUGG ... criterion not met
4. GGUAAGCAAUAUUACGAUAG ... criterion not met
5. AAGGAGCAAUAUUACGCGAG ... criterion not met
6. ACGUAGCAAUAUUACGCCUC ... criterion not met
7. UGUAAGCAAUAUUACGGUUG ... criterion met
8. UUGAAGCAAUAUUACGUUAA ... criterion met
9. AUCGAGCAAUAUUACGGAUU ... criterion not met
10. UGUAAGCAAUAUUACGUCAG ... criterion met
11. GGAUAGCAAUAUUACGCACA ... criterion met
12. GGCGAGCAAUAUUACGGCGA ... criterion met
13. CAGUAGCAAUAUUACGUACA ... criterion not met
14. UUUUAGCAAUAUUACGAGUU ... criterion met
15. UGGUAGCAAUAUUACGCGAG ... criterion not met

* * *

- procedure-summary: self-splicing fitness, log relative to wild type (ln ratio); higher = more splicing; Tetrahymena group I intron in knt gene, E. coli kanamycin selection, DiMSum; sequences stand for … in CUCUCU…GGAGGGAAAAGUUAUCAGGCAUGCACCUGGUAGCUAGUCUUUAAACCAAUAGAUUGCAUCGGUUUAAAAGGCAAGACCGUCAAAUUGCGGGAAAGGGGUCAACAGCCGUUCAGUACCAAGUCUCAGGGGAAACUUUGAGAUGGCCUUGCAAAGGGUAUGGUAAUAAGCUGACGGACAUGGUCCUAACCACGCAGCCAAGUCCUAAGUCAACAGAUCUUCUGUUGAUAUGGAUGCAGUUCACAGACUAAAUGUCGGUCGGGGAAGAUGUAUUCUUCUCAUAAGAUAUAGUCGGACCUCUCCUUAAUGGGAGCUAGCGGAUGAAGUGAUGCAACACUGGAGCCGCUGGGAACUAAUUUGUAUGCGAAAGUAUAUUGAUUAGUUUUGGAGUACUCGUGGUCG
- test-parameters: 30 °C
readout-type: self-splicing fitness (ln)

1) UCAAAGCAAUAUUACGAAGA ... -2.21
2) UUUUAGCAAUAUUACGAGUG ... -1.75
3) UCGAAGCAAUAUUACGAAGG ... -1.84
4) AAUCAGCAAUAUUACGCGAA ... -0.0302
5) UGACAGCAAUAUUACGGAGG ... -4.41
6) UACUAGCAAUAUUACGCUGU ... -4.54
7) UGCAAGCAAUAUUACGCUUC ... -3.15
8) CUUCAGCAAUAUUACGUUUC ... -2.93
9) GUUUAGCAAUAUUACGCCGA ... -2.93
10) UCGAAGCAAUAUUACGCUAG ... -2.16
11) UGAGAGCAAUAUUACGUCGA ... -2.82
12) GUACAGCAAUAUUACGCAUG ... -2.26
13) CUCGAGCAAUAUUACGAUAG ... -1.11
14) CAGGAGCAAUAUUACGUUGU ... -3.34
15) CUUAAGCAAUAUUACGUUCU ... -2.91
16) GGUGAGCAAUAUUACGGAUC ... -0.748
17) ACUAAGCAAUAUUACGCGUA ... -1.2
18) GAUGAGCAAUAUUACGCAAG ... -2.46
19) UCUUAGCAAUAUUACGCGGC ... -2.44
20) UUGUAGCAAUAUUACGCGGG ... -3
21) ACGCAGCAAUAUUACGUCCG ... -0.744
22) GUCAAGCAAUAUUACGAGGA ... -3.75
23) GCGGAGCAAUAUUACGACAA ... -1.13
24) CAAAAGCAAUAUUACGUCUU ... -2.5
25) GUUGAGCAAUAUUACGGGUC ... -2.23
26) UCAUAGCAAUAUUACGCAUU ... -2.86
27) UCGCAGCAAUAUUACGGGAA ... -2.44
28) AUAAAGCAAUAUUACGGUCG ... 0.114
29) AUAUAGCAAUAUUACGAGGC ... -2.74
30) UGGUAGCAAUAUUACGACGU ... -0.945
31) UAUAAGCAAUAUUACGCAGC ... -2.5
32) UCCAAGCAAUAUUACGAAGA ... -0.503
33) CCUGAGCAAUAUUACGGGUU ... -4.27
34) CUGUAGCAAUAUUACGUUAG ... -2.72
35) CGCAAGCAAUAUUACGGCGA ... -1.91
36) CCGUAGCAAUAUUACGGUUA ... -3.29
37) ACCGAGCAAUAUUACGUCGA ... -3.13
38) GGGUAGCAAUAUUACGGUUC ... -0.821
39) AAUAAGCAAUAUUACGACAC ... -1.12
40) AUGCAGCAAUAUUACGUGAA ... -2.44
41) GUUGAGCAAUAUUACGAUAA ... -3.96
42) UAAAAGCAAUAUUACGGUAA ... -1.94
43) CAAGAGCAAUAUUACGAUAC ... -2.8
44) CAUGAGCAAUAUUACGUUCG ... -1.33
45) AUAUAGCAAUAUUACGCAGU ... -2.86
46) UAUUAGCAAUAUUACGUAGA ... -2.62
47) AAUCAGCAAUAUUACGAAGA ... -0.26
48) GGGCAGCAAUAUUACGUCUG ... -1.11
49) AUUCAGCAAUAUUACGCACU ... -0.181
50) GUGGAGCAAUAUUACGUUAG ... -3.94
51) AGGCAGCAAUAUUACGAGAA ... -3.3
52) UACCAGCAAUAUUACGUCGC ... -2.97
53) AAAAAGCAAUAUUACGUGAU ... -2.07
54) GCAGAGCAAUAUUACGCCCA ... -1.07
55) GAGUAGCAAUAUUACGUUAG ... -3.69
56) UGGUAGCAAUAUUACGAGCG ... -0.4
57) CCGUAGCAAUAUUACGAAAC ... -2.61
58) GUAGAGCAAUAUUACGACGC ... -0.313
59) CCGAAGCAAUAUUACGUCAG ... -1.47
60) ACUCAGCAAUAUUACGCCGG ... -0.85
61) AGCGAGCAAUAUUACGGACA ... -2.53
62) UCCGAGCAAUAUUACGAUUC ... -2.88
63) CCCAAGCAAUAUUACGUGAC ... -3.91
64) GAAGAGCAAUAUUACGGUUC ... -3.53
65) CUCGAGCAAUAUUACGGGUU ... -3.47
66) ACACAGCAAUAUUACGACCG ... -0.326
67) UAGUAGCAAUAUUACGCUAG ... -1.09

* * *

- procedure-summary: self-splicing fitness, log relative to wild type (ln ratio); higher = more splicing; Tetrahymena group I intron in knt gene, E. coli kanamycin selection, DiMSum; sequences stand for … in CUCUCU…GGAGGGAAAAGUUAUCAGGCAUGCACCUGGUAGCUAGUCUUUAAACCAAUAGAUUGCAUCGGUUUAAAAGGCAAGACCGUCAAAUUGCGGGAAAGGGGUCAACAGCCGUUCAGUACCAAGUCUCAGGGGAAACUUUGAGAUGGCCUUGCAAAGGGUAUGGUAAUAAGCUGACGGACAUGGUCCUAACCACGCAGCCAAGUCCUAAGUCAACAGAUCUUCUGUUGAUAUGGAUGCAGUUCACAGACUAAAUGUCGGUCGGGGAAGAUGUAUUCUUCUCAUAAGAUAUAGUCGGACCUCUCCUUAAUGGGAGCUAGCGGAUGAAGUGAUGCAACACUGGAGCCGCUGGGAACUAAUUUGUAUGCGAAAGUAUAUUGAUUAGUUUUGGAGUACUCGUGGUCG
- test-parameters: 30 °C
Measured self-splicing fitness (ln) values are reported for all entries that follow.
readout-type: self-splicing fitness (ln)

1. AUGUAGCAAUAUUACGGGGC ... -4.82
2. AGGUAGCAAUAUUACGCCGU ... -1.24
3. CCGGAGCAAUAUUACGAUAG ... -0.959
4. UGUGAGCAAUAUUACGAGCU ... -2.7
5. UUGAAGCAAUAUUACGCACG ... -0.255
6. GGGCAGCAAUAUUACGUGUC ... -3.82
7. UCCGAGCAAUAUUACGCAUC ... -3.11
8. UCUGAGCAAUAUUACGUGAU ... -3.42
